test system: SR cells; test: Half inhibitory concentration (IC50) on ALK-positive SR cell proliferation (CCK-8); format: cell-based; conditions: Homo sapiens; SR cells, 72 h drug treatment, CCK-8; read-out: IC50 (nM)/ SR cell line
Could you mark each record true (1) if its IC50 falls strictly under 7 nM, and false (0) if it equals or exceeds it?

INSERT INTO assay_data (compound, group_label) VALUES
  ('COc1cc(N2CCC(NC(=O)CCCCCSc3cccc4c3C(=O)N(C3CCC(=O)NC3=O)C4=O)CC2)ccc1Nc1ncc(Cl)c(Nc2ccccc2P(C)(C)=O)n1 (stereo not shown)', 'true (1)'),
  ('COc1cc(N2CCC(N3CCN(C(=O)CCSc4cccc5c4C(=O)N(C4CCC(=O)NC4=O)C5=O)CC3)CC2)ccc1Nc1ncc(Cl)c(Nc2ccccc2P(C)(C)=O)n1 (stereo not shown)', 'false (0)'),
  ('COc1cc(N2CCC(NC(=O)CCCSc3cccc4c3C(=O)N(C3CCC(=O)NC3=O)C4=O)CC2)ccc1Nc1ncc(Cl)c(Nc2ccccc2P(C)(C)=O)n1 (stereo not shown)', 'false (0)'),
  ('COc1cc(N2CCN(C(=O)CSc3cccc4c3C(=O)N(C3CCC(=O)NC3=O)C4=O)CC2)ccc1Nc1ncc(Cl)c(Nc2ccccc2P(C)(C)=O)n1 (stereo not shown)', 'false (0)'),
  ('CCc1cc2c(cc1N1CCC(NC(=O)CCCCCSc3cccc4c3CN(C3CCC(=O)NC3=O)C4=O)CC1)C(C)(C)c1[nH]c3cc(C#N)ccc3c1C2=O (stereo not shown)', 'false (0)'),
  ('COc1cc(N2CCC(NC(=O)CSc3cccc4c3C(=O)N(C3CCC(=O)NC3=O)C4=O)CC2)ccc1Nc1ncc(Cl)c(Nc2ccccc2P(C)(C)=O)n1 (stereo not shown)', 'false (0)'),
  ('CCc1cc2c(cc1N1CCC(NC(=O)CSc3cccc4c3C(=O)N(C3CCC(=O)NC3=O)C4=O)CC1)C(C)(C)c1[nH]c3cc(C#N)ccc3c1C2=O (stereo not shown)', 'false (0)'),
  ('CCc1cc2c(cc1N1CCC(N3CCN(C(=O)CCCCCCSc4cccc5c4CN(C4CCC(=O)NC4=O)C5=O)CC3)CC1)C(C)(C)c1[nH]c3cc(C#N)ccc3c1C2=O (stereo not shown)', 'true (1)'),
  ('COc1cc(N2CCC(NC(=O)COCCOCCOCCOCCOCCSc3cccc4c3CN(C3CCC(=O)NC3=O)C4=O)CC2)ccc1Nc1ncc(Cl)c(Nc2ccccc2P(C)(C)=O)n1 (stereo not shown)', 'true (1)'),
  ('CCc1cc2c(cc1N1CCC(N3CCN(C(=O)COCCOCCOCCOCCSc4cccc5c4CN(C4CCC(=O)NC4=O)C5=O)CC3)CC1)C(C)(C)c1[nH]c3cc(C#N)ccc3c1C2=O (stereo not shown)', 'true (1)'),
  ('COc1cc(N2CCC(N3CCN(C(=O)CCCSc4cccc5c4C(=O)N(C4CCC(=O)NC4=O)C5=O)CC3)CC2)ccc1Nc1ncc(Cl)c(Nc2ccccc2P(C)(C)=O)n1 (stereo not shown)', 'true (1)'),
  ('COc1cc(N2CCC(NC(=O)CCCSc3cccc4c3CN(C3CCC(=O)NC3=O)C4=O)CC2)ccc1Nc1ncc(Cl)c(Nc2ccccc2P(C)(C)=O)n1 (stereo not shown)', 'true (1)'),
  ('COc1cc(N2CCN(C(=O)CCCCCCSc3cccc4c3C(=O)N(C3CCC(=O)NC3=O)C4=O)CC2)ccc1Nc1ncc(Cl)c(Nc2ccccc2P(C)(C)=O)n1 (stereo not shown)', 'false (0)'),
  ('COc1cc(N2CCC(NC(=O)CCCCCCSc3cccc4c3C(=O)N(C3CCC(=O)NC3=O)C4=O)CC2)ccc1Nc1ncc(Cl)c(Nc2ccccc2P(C)(C)=O)n1 (stereo not shown)', 'true (1)'),
  ('COc1cc(N2CCN(C(=O)CCCCCSc3cccc4c3C(=O)N(C3CCC(=O)NC3=O)C4=O)CC2)ccc1Nc1ncc(Cl)c(Nc2ccccc2P(C)(C)=O)n1 (stereo not shown)', 'false (0)'),
  ('COc1cc(N2CCC(NC(=O)COCCOCCSc3cccc4c3CN(C3CCC(=O)NC3=O)C4=O)CC2)ccc1Nc1ncc(Cl)c(Nc2ccccc2P(C)(C)=O)n1 (stereo not shown)', 'true (1)'),
  ('COc1cc(N2CCN(C(=O)CCSc3cccc4c3C(=O)N(C3CCC(=O)NC3=O)C4=O)CC2)ccc1Nc1ncc(Cl)c(Nc2ccccc2P(C)(C)=O)n1 (stereo not shown)', 'false (0)'),
  ('COc1cc(N2CCC(NC(=O)CCCCSc3cccc4c3C(=O)N(C3CCC(=O)NC3=O)C4=O)CC2)ccc1Nc1ncc(Cl)c(Nc2ccccc2P(C)(C)=O)n1 (stereo not shown)', 'false (0)'),
  ('COc1cc(N2CCC(NC(=O)CCCCSc3cccc4c3CN(C3CCC(=O)NC3=O)C4=O)CC2)ccc1Nc1ncc(Cl)c(Nc2ccccc2P(C)(C)=O)n1 (stereo not shown)', 'true (1)'),
  ('COc1cc(N2CCN(C(=O)CCCCSc3cccc4c3C(=O)N(C3CCC(=O)NC3=O)C4=O)CC2)ccc1Nc1ncc(Cl)c(Nc2ccccc2P(C)(C)=O)n1 (stereo not shown)', 'false (0)'),
  ('COc1cc(N2CCN(C(=O)CCCSc3cccc4c3C(=O)N(C3CCC(=O)NC3=O)C4=O)CC2)ccc1Nc1ncc(Cl)c(Nc2ccccc2P(C)(C)=O)n1 (stereo not shown)', 'false (0)'),
  ('COc1cc(N2CCC(NC(=O)CSc3cccc4c3CN(C3CCC(=O)NC3=O)C4=O)CC2)ccc1Nc1ncc(Cl)c(Nc2ccccc2P(C)(C)=O)n1 (stereo not shown)', 'true (1)');
